Some compounds, each annotated with its measured growth.
test system: SR leukemia; test: NCI-60 one-dose screen, 48 h (100 = growth as untreated, 0 = no growth, -100 = all killed); conditions: 10 µM unless noted
This is part of a sample that, as a whole, favours compounds with a hit. Of some 83,000 tested, about 20% had one in any assay. Calls of active or inactive are those of the source. Rule for the calls: active = growth percent below 10; inactive = the rest.

| Compound | growth |
| --- | --- |
| Clc1ccc2c(NCCCNc3nc(-n4ccnc4)nc4ccccc34)ccnc2c1 | 58.4% (inactive) |
| O=C(/C=C/c1cc(CN2CCOCC2)c(O)c2ncccc12)c1cc(CN2CCOCC2)c(O)c2ncccc12 | 8.01% (active) |
| CCCCn1c(-c2ccc(C(=O)O/N=C(\N)c3ccc4ccccc4c3)cc2)nc(-c2ccccc2)c1-c1ccccc1 | 12.1% (inactive) |
| C=CCSSC1N=CNc2nc[nH]c21 (stereo not given) | 13% (inactive) |
| CC(=O)c1cc(C(=O)c2ccc3c(c2)Sc2ccccc2N3)n2ccccc12 | 9.43% (active) |
| COC(=O)c1ccc2oc(NC(=O)c3ccc(Nc4ccc([N+](=O)[O-])cc4C)c([N+](=O)[O-])c3)nc2c1 | 111% (inactive) |
| COc1cc(/C=C/c2cc(/C=C/c3ccc(O)c(OC)c3)n(-c3c(Cl)cccc3Cl)c(=O)n2)ccc1O | 4.12% (active) |
| CCNc1ncnc2c1cnn2C1CCCO1 (stereo not given) | 94.3% (inactive) |
| O=C1/C(=C/C(Cl)=C/c2ccccc2)SC(=S)N1CCc1ccc(O)cc1 | 13.3% (inactive) |
| CC1=CC(C)(C)Nc2ccc(Cc3ccc4c(c3)C(C)=CC(C)(C)N4)cc21 | 118% (inactive) |
| COc1ccc(-c2cc(=O)c3c(OC)c4ccoc4cc3o2)cc1 | 82.4% (inactive) |
| NCCNc1nc(Nc2ccc(-c3nc4ccccc4[nH]3)cc2)c2cn[nH]c2n1 | -3.8% (active) |
| COc1ccccc1NS(=O)(=O)c1ccc2oc(SC(C)C)nc2c1 | 54.9% (inactive) |
| Clc1ccc2c(NCCNc3nc(N4CCOCC4)nc4ccccc34)ccnc2c1 | -23.5% (active) |
| CCCCC/C(C=C(C#N)C#N)=C/c1ccccc1 | 7.75% (active) |
| CCN=C1C=CC(=C(c2ccc(N)cc2)c2ccc(N(CC)CC)c(C)c2)C=C1 | -17.6% (active) |
| CCOc1nc(-c2ccccc2)cc2c(O)c(C(=O)N/N=C/c3ccc(O)cc3O)[nH]c(=O)c12 | 27% (inactive) |
| CS(=O)(=O)c1ccc(-n2nc(-c3ccc(Br)cc3)c3ccccc3c2=O)cc1 | 110% (inactive) |
| CCc1nnc(CNc2ccc(Cl)cc2)o1 | 88.6% (inactive) |
| CN1CCN(CCCOc2cccc3nc(Nc4ccc(Cl)c(F)c4)ccc23)CC1 | -16% (active) |
| O=C1c2cccc3cccc(c23)C(=O)N1CCCCN1CCN(CCCCOc2ccc(-c3nc4ccc(N5CCOCC5)cc4[nH]3)cc2)CC1 | -65% (active) |
| COc1cc(/C=C/C(=O)Nc2cccnc2Nc2ccc(F)cc2)cc(OC)c1OC | 82.5% (inactive) |
| CN(C)CCCNc1c2ccccc2nc2ccccc12 | 86.9% (inactive) |
| CNC(=O)c1cc(Oc2ccc(NC(=O)Nc3ccc(Cl)c(SC)c3)c(F)c2)ccn1 | 31.4% (inactive) |
| Cc1cn2c(/C=C3/C(=O)Nc4c3ccc3ccccc43)c(C(F)(F)F)nc2s1 | 8.46% (active) |
| COc1ccc(C(=O)COc2ccc(/C=C3\COc4ccc(OC)cc4C3=O)cc2)cc1 | 2.54% (active) |
| CSc1ccc(-c2n[nH]nc2-c2cc3ccccc3s2)cc1 | 24.9% (inactive) |
| COc1cccc2c1C(=O)c1c(O)c3c(c(O)c1C2=O)C[C@](O)(C(=O)CO)C[C@H]3O[C@@H]1C[C@@H](NC(=O)CCCN(C)C2(c3ccc(F)cc3)CC3CCC2C3)[C@H](O)[C@@H](C)O1 (stereo not given in full) | -60.2% (active) |
| COc1ccc(SC2c3ccc(C)cc3Oc3nc(N)c(C#N)c(N)c32)cc1 (stereo not given) | -28% (active) |
| COc1cc(-c2nn(-c3ccc(C)cc3)cc2C(=O)O)ccc1O | 85.3% (inactive) |
| C#CCOc1ccc2ncnc(Nc3cccc(CNC(=O)CCl)c3)c2c1 | 25.1% [8.25 µM] (inactive) |
| COc1ccc(-n2nc(C)c3c(Oc4ccc(NC(=O)Nc5c(Cl)cccc5Cl)cc4)ncnc32)cc1 | 111% (inactive) |
| NC(=NC1C2CC3CC(C2)CC1C3)Nc1ccc(I)cc1 (stereo not given) | -10.1% (active) |
| O=C(Cc1ccc(/C=C/C(=O)c2ncc[nH]2)cc1)Nc1ccc(F)cc1 | -2.77% (active) |
| O=C1Nc2c(ccc(Cl)c2Cl)/C1=C\c1ccc(C(F)(F)F)cc1 | 104% (inactive) |
| O=C1/C(=C/c2ccc(OCCCOc3ccc(Cl)cc3)cc2)N=C2SCCCN12 | 67.5% (inactive) |
| COc1ccc(S(=O)(=O)N2CCCCCC2)cc1NC(=O)c1[nH]c(C)c2c1CCCCC2=O | 35.6% (inactive) |
| CCOC(=O)n1cc(-c2nonc2-c2cn(C)c3ncccc23)c2cc(F)ccc21 | 84% (inactive) |
| NC(N)=N/N=C(/c1ccccc1)c1ccc(F)cc1 | -19.4% (active) |
| Cc1nn(-c2cc(=O)[nH]c3ccc(Cl)cc23)c(N)c1C#N | 121% (inactive) |
